# Assayed system: CYP2C9 (Homo sapiens, UniProt P11712)
# Sequence (P11712 whole entry): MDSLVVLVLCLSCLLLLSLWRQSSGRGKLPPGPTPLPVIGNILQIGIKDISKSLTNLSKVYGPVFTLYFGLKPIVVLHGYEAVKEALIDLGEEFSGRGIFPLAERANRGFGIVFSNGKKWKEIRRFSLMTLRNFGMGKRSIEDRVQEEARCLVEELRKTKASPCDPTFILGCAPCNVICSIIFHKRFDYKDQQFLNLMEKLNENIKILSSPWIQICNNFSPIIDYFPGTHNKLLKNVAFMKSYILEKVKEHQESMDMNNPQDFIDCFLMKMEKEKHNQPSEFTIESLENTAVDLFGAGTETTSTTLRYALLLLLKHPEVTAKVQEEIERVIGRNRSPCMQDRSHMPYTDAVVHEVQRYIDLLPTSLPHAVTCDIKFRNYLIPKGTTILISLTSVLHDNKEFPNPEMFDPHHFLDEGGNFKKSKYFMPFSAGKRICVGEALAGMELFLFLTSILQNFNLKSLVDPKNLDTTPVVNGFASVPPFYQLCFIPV
# Measurement protocol: Inhibition of CYP2C9 at 3 uM
# Format: ADME
Recorded inhibition at 3 µM, one value per entry.
Recorded metric: inhibition at 3 µM (%)

INSERT INTO measurements (structure_notation, measure_unit, measured_result) VALUES
  ('CC(=O)NCC(=O)NCc1cccc(-n2nc(C(C)(C)C)cc2NC(=O)Nc2ccccc2)c1', '%', 0),
  ('CC(C)(C)c1cc(NC(=O)Nc2ccccc2)n(-c2cccc(CNC(=O)Cn3ccccc3=O)c2)n1', '%', 6),
  ('Cc1ccn(CC(=O)NCc2cccc(-n3nc(C(C)(C)C)cc3NC(=O)Nc3ccccc3)c2)n1', '%', 5);
